All figures here come from patent US9120749B2.

Test system: 22Rv1
Experiment: Cell-based assay: anti-proliferative activity, Cell Counting Kit-8, 72 hours (22Rv1)
Details: Homo sapiens; 22Rv1 cells
Where a name gives a salt, the structure may show the parent alone.
parameter: IC50 (µM)
Give just the number in µM; leave the unit off.

Record COc1cc(-c2ccc3ncc(C(=O)C4CC4)c(N[C@H]4CC[C@H](CN)CC4)c3c2)cc(Cl)c1O [Example 494, hydrochloride] . Reported IC50: 0.13

---
For O=C(c1cnc2ccc(-c3cc(F)c(O)c(Cl)c3)cc2c1Nc1ccc(CN2CCCC2)cc1)C1CC1 [Example 396] the molecule record lists IC50 as 0.38

The molecule CC(=O)c1cnc2ccc(-c3cc(Cl)c(O)c(Cl)c3)cc2c1Nc1ccc(CN2CCCC2)cc1 [Example 416, hydrobromide] showed IC50 equal to 0.19

The molecule listed as CN(C)C[C@H]1CC[C@H](Nc2c(S(C)(=O)=O)cnc3ccc(-c4cc(Cl)c(O)c(Cl)c4)cc23)CC1 [Example 421] shows IC50 equal to 0.64

Recorded result, CN(C)Cc1ccc(Nc2c(S(C)(=O)=O)cnc3ccc(-c4cc(Cl)c(O)c(Cl)c4)cc23)cc1 [Example 401, hydrochloride] , IC50: 0.52

// field: IC50; key: NCc1ccc(Nc2c(C(=O)C3CC3)cnc3ccc(-c4cc(F)c(O)c(Cl)c4)cc23)cc1 [Example 505, hydrochloride] ; value = 0.088
